- TESTED_TARGET: T1, human CD47 (hCD47) expressed on cells (human, UniProt Q08722 19-323)
- T1 construct: Transfected CHO cells or endogenous CD47 of human cells; also called CHO-hCD47; CD47 on Raji cells
- EXPERIMENT_DESCRIPTION: flow cytometry, Raji cells
ATTRIBUTE_MEASURED: EC50 (µg/mL)
Write the answer as a number in µg/mL, unit excluded.

Solved entries:
[[record]]
binder = "Candidate 22 (VL008-AL13-8G5-8K3), mouse IgG (antibody, V domains shown, Recombinant mouse IgG2a or mIgG1 format, by assay; also called antibody 22) VH: QVQLQQPGAELVKPGASVKLSCKASGYTFTTYWMHWVKQRPGQGLEWIGMIHPNSGTTNYNEKFKSKATLTVDKSSSSTYMQLSSLTSEDSAVYYCTRSHYYDGHFSYWGQGTLVTVSA VL: DIVMSQSPSSLAVSAGEKVTMSCKSSQSLLNSRTRKNYLAWYQQKPGQSPKLLIYWASTRESGVPDRFTGSGSGTDFTLTISSVQAEDLAVYYCKQSYNLWTFGGGTRLEIK"
attribute_measured = "EC50"
unit_label = "µg/mL"
readout_number = 0.136

[[record]]
binder = "Candidate 15 (VT008-AL6-18G1-18K21), mouse IgG (antibody, V domains shown, Recombinant mouse IgG2a or mIgG1 format, by assay) VH: QVQLQQPGAELVKPGTSVKLSCKASGYTFINYWIHWVKQRPGRGLEWIGRIDPNTVDAKYNEKFKSKATLTVDKPSSIAYMQLSSLTSEDSAVYYCSRGGYTMDYWGQGTSVTVSS VL: DVVMTQTPLSLPVSLGDQASISCRSSQSLVHSNGNTYLHWYLQKPGQSPTLLIYKVSNRFSGVPDRFSGSGSGTDFTLKISRVEAEDLGIYFCFQSTHVPWTFGGGTKLEIK"
attribute_measured = "EC50"
unit_label = "µg/mL"
readout_number = 0.031


Now consider the entry below.
Sample Candidate 7 (VT008-AL5-10G7-10K7), mouse IgG (antibody, V domains shown) VH: QVQLQQPGAELVMPGSSVKLSCKTSGYTFTKYWMHWVKRRPGQGLEWIGEINPSDTYTNYNQKFKGKSTLTVDKSSSTAYMQLSSLTSEDSAVYFCARVATMVARGFAYWGQGTLVTVSA VL: DIVMTQSHKFMSTSVGDRVSITCKASQDVSGAVVWYQEKPGQSPNLLIYLATYRYTGVPDRFTGSGSGTDFTLTIRSVQAEDMAVYYCQQYYSIPWTFGGGTKLEIK ; EC50 observed: 0.058
